// provenance: paper PMC7253423

Listed here are compounds together with their documented viability at […].
Experiment: Cytotoxicity, cell viability assay in normal cells
Format: cell-based
Details: human, normal T-cells from healthy donors, T-cells, Con. […], fraction of 0 μM control; read-out: relative cell viability (Fig 6b), replicates

| Compound | viability at […] / % |
| --- | --- |
| C[C@H](Nc1ncnc2nc[nH]c12)c1cc2cccc(Cl)c2c(=O)n1-c1ccccc1 [Duvelisib] | 103 |
| C[C@H](NC(=O)c1c(N)nn2cccnc12)c1cc2cccc(C#Cc3cnn(C)c3)c2c(=O)n1-c1ccccc1 [IPI-549] | 109 |

----------
Test: Cytotoxicity, cell viability assay in normal cells
Format: cell-based, human
Conditions: human, relative cell viability (Fig 6a), replicates

| Compound | viability at 0.00390625 μM |
| --- | --- |
| COC(=O)C12OCC34C(CC5C(C)=C(OC(=O)CC(C)N)C(=O)CC5(C)C3C(O)C1O)OC(=O)C(OC(=O)C=C(C)C)C24 (stereo not shown) | 85% |

----------
Experiment: Cytotoxicity, cell viability assay in normal cells
Assay type: cell-based
Conditions: human, normal T-cells from healthy donors, T-cells, Con. 0.000244141 μM, fraction of 0 μM control; read-out: relative cell viability (Fig 6b), replicates
Quantity: viability at 0.000244141 μM (%)

| Compound | Quantity | Experimental Value |
| --- | --- | --- |
| C[C@H](Nc1ncnc2nc[nH]c12)c1cc2cccc(Cl)c2c(=O)n1-c1ccccc1 [Duvelisib] | viability at 0.000244141 μM | 108 |
| CC[C@H](Nc1ncnc2[nH]cnc12)c1nc2cccc(F)c2c(=O)n1-c1ccccc1 [Idelalisib] | viability at 0.000244141 μM | 105 |
| COc1c(OCCCN2CCOCC2)ccc2c1N=C(NC(=O)c1cnc(N)nc1)N1CCN=C21 [Copanlisib] | viability at 0.000244141 μM | 95.3 |
| C[C@H](NC(=O)c1c(N)nn2cccnc12)c1cc2cccc(C#Cc3cnn(C)c3)c2c(=O)n1-c1ccccc1 [IPI-549] | viability at 0.000244141 μM | 108 |

----------
Test: Cytotoxicity, cell viability assay in normal cells
Type: cell-based, human
Conditions: human, PBMC, Con. 0.015625 μM, fraction of 0 μM control; read-out: relative cell viability (Fig 6a), replicates

| Compound | Uom | viability at 0.015625 μM |
| --- | --- | --- |
| COc1c(OCCCN2CCOCC2)ccc2c1N=C(NC(=O)c1cnc(N)nc1)N1CCN=C21 | % | 92.8 |
| C[C@H](NC(=O)c1c(N)nn2cccnc12)c1cc2cccc(C#Cc3cnn(C)c3)c2c(=O)n1-c1ccccc1 | % | 104 |
| C[C@H](Nc1ncnc2nc[nH]c12)c1cc2cccc(Cl)c2c(=O)n1-c1ccccc1 | % | 101 |
| CC[C@H](Nc1ncnc2[nH]cnc12)c1nc2cccc(F)c2c(=O)n1-c1ccccc1 | % | 111 |
| COC(=O)C12OCC34C(CC5C(C)=C(OC(=O)CNC(=O)OC(C)(C)C)C(=O)CC5(C)C3C(O)C1O)OC(=O)C(OC(=O)C=C(C)C)C24 (centres unmarked) | % | 76.5 |

----------
viability at 1 μM reference
Experiment: Cytotoxicity, cell viability assay in normal cells
Format: cell-based, human
Conditions: human, PBMC, Con. 1 μM, fraction of 0 μM control; read-out: relative cell viability (Fig 6a), replicates
Quantity: viability at 1 μM (%)

| Compound | Uom | Experimental Value |
| --- | --- | --- |
| COc1c(OCCCN2CCOCC2)ccc2c1N=C(NC(=O)c1cnc(N)nc1)N1CCN=C21 | % | 61.4 |
| COC(=O)C12OCC34C(CC5C(C)=C(OC(=O)CNC(=O)OC(C)(C)C)C(=O)CC5(C)C3C(O)C1O)OC(=O)C(OC(=O)C=C(C)C)C24 (centres unmarked) | % | 61.2 |
| CC[C@H](Nc1ncnc2[nH]cnc12)c1nc2cccc(F)c2c(=O)n1-c1ccccc1 | % | 89.1 |
| C[C@H](NC(=O)c1c(N)nn2cccnc12)c1cc2cccc(C#Cc3cnn(C)c3)c2c(=O)n1-c1ccccc1 | % | 99.1 |
| C[C@H](Nc1ncnc2nc[nH]c12)c1cc2cccc(Cl)c2c(=O)n1-c1ccccc1 | % | 80.3 |
